# SUBJECT OF TEST: SARS-CoV-2 wild-type spike receptor-binding domain (SARS-CoV-2, WT (MN908947), UniProt P0DTC2)
QUANTITY NAME: binding result

{"BINDER": "XGv074 (antibody, V domains shown) VH: EVQLVESGGGLIQPGGSLRLSCAASGITVSANYMSWVRQAPGKGLEWVSVIYSGGSTYYADSVKGRFTISRDHSKNTLYLQMKNLRAEDTAVYYCARDRGSSGYLGDQPYEYWGQGTLVTVSS VL: DIQMTQSPSSLSASVGDRVTITCQASQDINKYLNWYQQKPGKAPKLLIYGASNLETGVPSRFSGSGSGTDFTFTISSLRPEDIATYYCQQYDPLPVTFGGGTRVEIK", "QUANTITY NAME": "binding result", "VALUE OBSERVED": "binds"}
{"BINDER": "XGv345 (antibody, V domains shown) VH: QVQLQESGPGLVKPSQTLSLTCTVSGGSIRSGSYYWSWIRQPAGKGLEWIGRVYTSGSTNYNPSLKTRVTISLETSKNHFSLKLSSVTAADTAVYYCARGEWEEDFALWGRGTLVTVSS VL: DIQMTQSPSSLSASVGDRVTITCRASQSIASHLNWYQQKPGKAPKLLIYGASTLQSGVPSRFSGSGSGTAFTLTISSVQPEDFATYYCQQSYSAITFGQGTRLEIK", "QUANTITY NAME": "binding result", "VALUE OBSERVED": "binds"}
{"BINDER": "XGv294 (antibody, V domains shown) VH: QVQLVQSGAEVKKPGASVKVSCKASGYTFTRHYIHWVRQAPGQGLEWMGIINPSGGGASYAQKFQGRVTMTRDTSTSTVYMEVSSLRYEDTAVYYCARAEGGSWLGWFDPWGQGTLVTVSS VL: QSVLTQPPSASGTPGQRVTISCSGGSSNIGNNYVYWYQQLPGTAPKLLIYGNNQRPSGVPDRFSGSKSGTSASLAISGLRSEDEADYHCAAWDDGLSGSGWVFGGGTKLT", "QUANTITY NAME": "binding result", "VALUE OBSERVED": "binds"}
